Sourced from patent US20040106545A1

// reported % Inhibition of neurite outgrowth, 250 µg/mL (rat neurons) for each item listed
- tgt: N-cadherin expressed on transfected 3T3 cells (Examples 2 and 21)
- assay-notes: cell-based or functional assay
Positions of bridges follow the written chain, without caps; N, C: chain ends.
Could you give me the number in %? Just the number is fine.

Solved entries:
H-CAHGVDIC-NH2 (disulfide 1-8 (inferred)) [H-CAHGVDIC-NH2]; 0
Ac-CHGVSC-NH2 (disulfide 1-6 (inferred)) [N-Ac-CHGVSC-NH2]; 0
Ac-CRAHGVDC-NH2 (disulfide 1-8 (inferred)) [N-Ac-CRAHGVDC-NH2]; 0
Ac-CSHAVSC-NH2 (disulfide 1-7; SMILES CC(=O)N[C@H]1CSSC[C@@H](C(N)=O)NC(=O)[C@H](CO)NC(=O)[C@H](C(C)C)NC(=O)[C@H](C)NC(=O)[C@H](Cc2c[nH]cn2)NC(=O)[C@H](CO)NC1=O) [N-Ac-CSHAVSC-NH2]; 0

Dear colleague, I am looking for the recorded % Inhibition of neurite outgrowth, 250 µg/mL (rat neurons) of the following binder: Ac-CHAVSC-NH2 (disulfide 1-6 (inferred)) [N-Ac-CHAVSC-NH2]
0

Dear colleague, I am looking for the recorded % Inhibition of neurite outgrowth, 250 µg/mL (rat neurons) of the following binder: Ac-CAHAVDIC-NH2 (disulfide 1-8 (inferred)) [N-Ac-CAHAVDIC-NH2]
82

Dear colleague, I am looking for the recorded % Inhibition of neurite outgrowth, 250 µg/mL (rat neurons) of the following binder: H-KHAVD-NH2 (lactam 1-5 (inferred)) [H-KHAVD-NH2]
0

Dear colleague, I am looking for the recorded % Inhibition of neurite outgrowth, 250 µg/mL (rat neurons) of the following binder: Ac-CAHGVDIC-NH2 (disulfide 1-8 (inferred)) [N-Ac-CAHGVDIC-NH2]
0

Dear colleague, I am looking for the recorded % Inhibition of neurite outgrowth, 250 µg/mL (rat neurons) of the following binder: Ac-CAHGVC-NH2 (disulfide 1-6 (inferred)) [N-Ac-CAHGVC-NH2]
0

Dear colleague, I am looking for the recorded % Inhibition of neurite outgrowth, 250 µg/mL (rat neurons) of the following binder: H-CAHAVDIC-NH2 (disulfide 1-8 (inferred)) [H-CAHAVDIC-NH2]
0

Dear colleague, I am looking for the recorded % Inhibition of neurite outgrowth, 250 µg/mL (rat neurons) of the following binder: Ac-CLRAHAVDC-NH2 (disulfide 1-9 (inferred)) [N-Ac-CLRAHAVDC-NH2]
60

Dear colleague, I am looking for the recorded % Inhibition of neurite outgrowth, 250 µg/mL (rat neurons) of the following binder: Ac-KHGVD-NH2 (lactam 1-5 (inferred)) [N-Ac-KHGVD-NH2]
0
